Source: paper PMC2756588

- experimental system: T1, Fus1, P11710
- T1 sequence (P11710 432-512, looked up): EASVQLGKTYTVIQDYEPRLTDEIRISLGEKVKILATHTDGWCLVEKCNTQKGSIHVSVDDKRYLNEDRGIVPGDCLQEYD
- assay name: SPOT array
- run parameters: median of control spots 1200
Please note: SPOT intensity exactly at 50 is criterion not met. Only values below 50 get criterion met.

Example cases with answers are listed next.
RLPAPPPPPRRGPAP
criterion met
NILKRRPLKLEAPSK
criterion met
IVNKPLPPLPVAGSS
criterion met
NGRRRPKFRVQLSGN
criterion not met
PALPSLPPPPLLNVD
criterion met
FHLNPKRSAVLYDRP
criterion not met

-- ask Find out if reported SPOT intensity for `LRWRHKFFLPAIAAI` is less than 50
-- reply criterion not met
